Can you tell me DC50 for the items I'm about to list?
Target: HPK1 (Homo sapiens, UniProt Q92918)
Construct: A HiBiT tag was introduced by CRISPR on the N terminus of HPK1 in Jurkat cells; host or cells: Jurkat cells (ATCC TIB-152), monoclonal line with CRISPR knock-in of HiBiT at the endogenous HPK1 locus
Sequence (Q92918 whole entry): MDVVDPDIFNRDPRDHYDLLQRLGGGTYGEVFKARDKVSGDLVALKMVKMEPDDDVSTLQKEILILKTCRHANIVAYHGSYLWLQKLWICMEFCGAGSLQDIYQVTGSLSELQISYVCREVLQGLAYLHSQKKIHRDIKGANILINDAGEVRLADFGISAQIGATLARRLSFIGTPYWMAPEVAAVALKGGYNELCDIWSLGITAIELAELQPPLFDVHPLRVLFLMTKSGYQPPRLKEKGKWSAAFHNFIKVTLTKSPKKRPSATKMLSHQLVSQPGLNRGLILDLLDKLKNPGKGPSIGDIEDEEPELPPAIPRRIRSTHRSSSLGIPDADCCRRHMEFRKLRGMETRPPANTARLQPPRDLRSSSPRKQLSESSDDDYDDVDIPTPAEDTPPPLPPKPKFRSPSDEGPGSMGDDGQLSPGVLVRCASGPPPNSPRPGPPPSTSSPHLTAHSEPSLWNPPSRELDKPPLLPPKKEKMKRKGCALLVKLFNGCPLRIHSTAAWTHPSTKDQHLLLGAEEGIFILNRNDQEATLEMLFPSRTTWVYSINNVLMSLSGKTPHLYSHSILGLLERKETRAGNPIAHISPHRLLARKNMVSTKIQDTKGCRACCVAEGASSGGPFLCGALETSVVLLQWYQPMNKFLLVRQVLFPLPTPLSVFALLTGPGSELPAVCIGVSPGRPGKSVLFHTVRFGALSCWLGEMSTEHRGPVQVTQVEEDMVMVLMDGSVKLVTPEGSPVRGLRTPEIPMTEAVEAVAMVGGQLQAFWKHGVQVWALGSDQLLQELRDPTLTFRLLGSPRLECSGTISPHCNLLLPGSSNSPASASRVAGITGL
Test: HPK1 Cellular HiBit Degradation Assay
Format: cell-based
Settings: HiBiT HPK1 Jurkat cells, 24 hrs; concentration at which 50% of HPK1 was remaining; read-out: DC50 Category

HPK1 (Homo sapiens, UniProt Q92918) assay, compound CC(C)n1cnc2cc(-c3ccc4c(c3)N([C@H]3C[C@@H](N5CCC[C@@H](F)C5)C3)C(=O)C43CCN(C(=O)C4(C)CCN(C(=O)C5CCN(c6ccc(C7CCC(=O)NC7=O)cn6)CC5)CC4)CC3)nc(NC3CC3)c21 (mixture of isomers) , recorded DC50 = 100 to 500 nM

For the compound CC(C)n1cnc2cc(-c3ccc4c(c3)N([C@H]3C[C@@H](N5CCCCC5)C3)C(=O)C43CCN(C(=O)c4ccc(C(=O)N5CCN(c6ccc(C7CCC(=O)NC7=O)cn6)C[C@H]5C)cc4)CC3)nc(Nc3ccccc3F)c21 (mixture of isomers) , the measured DC50 on HPK1 (Homo sapiens, UniProt Q92918) was 100 to 500 nM

// returns DC50 for CC(C)n1cnc2cc(-c3ccc4c(c3)N([C@H]3C[C@@H](N5CCCCC5)C3)C(=O)C43CCN(C(=O)[C@@H]4CCN(C(=O)[C@H]5CC[C@H](Oc6ccc(C7CCC(=O)NC7=O)cn6)CC5)C4)CC3)nc(Nc3ccccc3F)c21 (mixture of isomers) with HPK1 (Homo sapiens, UniProt Q92918); value = < 100 nM

For the compound CC(C)n1cnc2cc(-c3ccc4c(c3)N([C@H]3C[C@@H](N5CCCCC5)C3)C(=O)C43CCN(C(=O)C[C@@H]4CCCN(C(=O)CC5CCN(c6ccc(C7CCC(=O)NC7=O)cn6)CC5)C4)CC3)nc(NC3CC3)c21 (mixture of isomers) , the measured DC50 on HPK1 (Homo sapiens, UniProt Q92918) was 100 to 500 nM
